Molecular target: Somatostatin receptor type 5 (Homo sapiens)
Sequence (P35346 whole entry): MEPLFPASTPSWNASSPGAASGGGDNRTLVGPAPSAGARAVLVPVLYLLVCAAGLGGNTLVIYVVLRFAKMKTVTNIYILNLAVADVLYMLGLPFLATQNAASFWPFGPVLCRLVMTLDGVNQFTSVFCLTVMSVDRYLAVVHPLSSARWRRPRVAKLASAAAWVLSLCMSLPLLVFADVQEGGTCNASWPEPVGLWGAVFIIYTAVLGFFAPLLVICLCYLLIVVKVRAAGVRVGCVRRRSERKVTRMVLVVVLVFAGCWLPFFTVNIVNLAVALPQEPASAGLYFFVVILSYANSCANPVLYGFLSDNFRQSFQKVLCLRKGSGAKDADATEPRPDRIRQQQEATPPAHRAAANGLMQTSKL
Assay: Antagonist activity at human SSTR5 expressed in CHO cells assessed as inhibition of SST14-induced forskolin-stimulated intracellular cAMP level incubated for 15 mins followed by forskolin stimulation for 30 mins by HTRF assay
quantity name: IC50 (nM)
One number for each entry, in nM.

CCOc1cc(C(C)N2CC3(CC(c4ccc(C(=O)O)cc4)=NO3)C2)cc(OCC)c1-c1ccc(F)cc1 (centres undefined); 95
CCOc1cc(CN2CC3(CC([C@H]4CC[C@H](C(=O)O)CC4)=NO3)C2)cc(OCC)c1-c1ccc(F)cc1; 30
CCOc1cc(CN2CC3(CC(N4CCC(C(=O)O)C4)=NO3)C2)cc(OCC)c1-c1ccc(F)cc1 (centres undefined); 190
CCOc1cc(CN2CC3(CC(c4ccc(C(=O)O)cn4)=NO3)C2)cc(OCC)c1-c1ccc(F)cc1; 61
CCOc1cc(CN2CC3(CC([C@H]4CC[C@@H](C(=O)O)CC4)=NO3)C2)cc(OCC)c1-c1ccc(F)cc1; 130

Give IC50 for each listed item.
1. CCOc1cc(CN2CC3(CC(c4cccc(C(=O)O)c4)=NO3)C2)cc(OCC)c1-c1ccc(F)cc1
2. CCOc1cc(CN2CC3(CC(c4ccc(C(=O)O)cc4Cl)=NO3)C2)cc(OCC)c1-c1ccc(F)cc1
3. CCOc1cc(CN2CC3(CC(N4CC(C(=O)O)C4)=NO3)C2)cc(OCC)c1-c1ccc(F)cc1
4. CCOc1cc(CN2CC3(CC(CCC(=O)O)=NO3)C2)cc(OCC)c1-c1ccc(F)cc1

Ans.
1: 550; 2: 46; 3: 200; 4: 3200

Data provenance: ChEMBL document CHEMBL4052694
